Molecular target: Galectin-9 (Homo sapiens, UniProt O00182)
Sequence (O00182 whole entry): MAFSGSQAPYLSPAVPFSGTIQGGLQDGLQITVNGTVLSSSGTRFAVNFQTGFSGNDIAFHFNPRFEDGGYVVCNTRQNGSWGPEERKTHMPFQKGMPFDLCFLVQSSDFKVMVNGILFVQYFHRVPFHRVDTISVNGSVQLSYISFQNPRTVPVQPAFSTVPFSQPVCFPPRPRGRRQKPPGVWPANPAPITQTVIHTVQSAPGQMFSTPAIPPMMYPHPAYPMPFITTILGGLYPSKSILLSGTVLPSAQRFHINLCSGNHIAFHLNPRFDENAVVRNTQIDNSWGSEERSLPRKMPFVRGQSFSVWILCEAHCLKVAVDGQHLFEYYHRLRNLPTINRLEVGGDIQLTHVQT
# key: entry, value: pKd
# reply with the number alone; pKd is -log10 of concentration in mol/L

CS[C@@H]1O[C@H](CO)[C@H](O)[C@H](n2cc(C(=O)NCc3ccccc3)nn2)[C@H]1O    3.27
CO[C@@H]1O[C@H](CO)[C@H](O)[C@H](O)[C@H]1O    2.48
COC(=O)c1cn([C@H]2[C@@H](O)[C@@H](CO)O[C@@H](SC)[C@@H]2O)nn1    3.37
COCCNC(=O)c1cn([C@H]2[C@@H](O)[C@@H](CO)O[C@@H](S[C@@H]3O[C@H](CO)[C@H](O)[C@H](n4cc(C(=O)NCCOC)nn4)[C@H]3O)[C@@H]2O)nn1    5.64

Attention now turns to another entry.
For the compound CNC(=O)c1cn([C@H]2[C@@H](O)[C@@H](CO)O[C@@H](S[C@@H]3O[C@H](CO)[C@H](O)[C@H](n4cc(C(=O)NC)nn4)[C@H]3O)[C@@H]2O)nn1 , the measured pKd on Galectin-9 (Homo sapiens, UniProt O00182) was 6.04

* * *

Molecular target: Galectin-7 (Homo sapiens)
Sequence (P47929 whole entry): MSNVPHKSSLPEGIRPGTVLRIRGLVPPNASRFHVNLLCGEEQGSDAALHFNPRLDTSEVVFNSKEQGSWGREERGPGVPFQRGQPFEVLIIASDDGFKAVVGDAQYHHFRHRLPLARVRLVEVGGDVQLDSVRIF
Decide using Kd alone. Strictly below 2000 µM: met. Equal to or above 2000 µM: not met.

// below: answered compounds
CS[C@@H]1O[C@H](CO)[C@H](O)[C@H](n2cc(C3(O)CCCCC3)nn2)[C@H]1O    not met
CNC(=O)c1cn([C@H]2[C@@H](O)[C@@H](CO)O[C@@H](O[C@H]3[C@H](O)[C@@H](NC(C)=O)[C@H](OC)O[C@@H]3CO)[C@@H]2O)nn1    met
O=C(NCc1ccccc1)c1cn([C@H]2[C@@H](O)[C@@H](CO)O[C@@H](S[C@@H]3O[C@H](CO)[C@H](O)[C@H](n4cc(C(=O)NCc5ccccc5)nn4)[C@H]3O)[C@@H]2O)nn1    met
CS[C@@H]1O[C@H](CO)[C@H](O)[C@H](n2ccnn2)[C@H]1O    not met
CS[C@@H]1O[C@H](CO)[C@H](O)[C@H](n2cc(CO)nn2)[C@H]1O    not met

// switching to the query compound
Problem: Below 2000 µM on Kd? Entry CS[C@@H]1O[C@H](CO)[C@H](O)[C@H](n2cc(-c3ccccc3)nn2)[C@H]1O
Result: met

Where do these numbers come from? They come from ChEMBL document CHEMBL1250422.
